Biological target: human GPR119 (Homo sapiens, UniProt Q8TDV5)
Construct: host or cells: HEK293-CRE-beta-lactamase
Sequence (Q8TDV5 whole entry): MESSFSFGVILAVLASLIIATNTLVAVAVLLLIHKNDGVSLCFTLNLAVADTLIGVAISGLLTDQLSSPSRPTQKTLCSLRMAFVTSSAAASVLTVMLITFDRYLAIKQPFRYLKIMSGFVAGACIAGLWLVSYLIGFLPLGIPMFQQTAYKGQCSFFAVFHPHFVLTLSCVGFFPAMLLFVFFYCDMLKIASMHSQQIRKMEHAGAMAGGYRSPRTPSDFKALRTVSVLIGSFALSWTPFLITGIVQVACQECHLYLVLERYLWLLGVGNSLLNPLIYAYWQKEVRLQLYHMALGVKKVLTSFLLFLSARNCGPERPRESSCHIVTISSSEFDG
Assay: beta-lactamase reporter functional assay (hGPR119 HEK293-CRE beta-lactamase cells)
Type: cell-based
Details: hGPR119 HEK293-CRE beta-lactamase cells; one value per run; read-out: Human B-lactamase Functional EC50
quantityKind: pEC50
Notebook: values listed as pEC50 are -log10 of the concentration (mol/L).

Would you please look over these solved cases?
CC(C)OC(=O)N1CCC(n2ncc(COc3c(F)ccc(F)c3F)c2C#N)CC1 = 6.55
CC(C)OC(=O)N1CCC(n2ncc(COc3ccc(-c4nnnn4C)cc3F)c2C#N)CC1 = 7.21
Cc1nc(-n2cncn2)ccc1NCc1cnn(C2CCN(C(=O)OC(C)C)CC2)c1C#N = 6.07

Here is another compound to look at.
Measured pEC50 for this entry Cc1ncccc1NCc1cnn(C2CCN(C(=O)OC(C)C)CC2)c1C#N on human GPR119 (Homo sapiens, UniProt Q8TDV5): 8.22
